Target: hCAT1 (Homo sapiens, UniProt P30825)
Construct: expressed in transfected cells; host or cells: LLCPK-TREx (porcine kidney epithelial) cells, induced with tetracycline and butyrate
Sequence (P30825 whole entry): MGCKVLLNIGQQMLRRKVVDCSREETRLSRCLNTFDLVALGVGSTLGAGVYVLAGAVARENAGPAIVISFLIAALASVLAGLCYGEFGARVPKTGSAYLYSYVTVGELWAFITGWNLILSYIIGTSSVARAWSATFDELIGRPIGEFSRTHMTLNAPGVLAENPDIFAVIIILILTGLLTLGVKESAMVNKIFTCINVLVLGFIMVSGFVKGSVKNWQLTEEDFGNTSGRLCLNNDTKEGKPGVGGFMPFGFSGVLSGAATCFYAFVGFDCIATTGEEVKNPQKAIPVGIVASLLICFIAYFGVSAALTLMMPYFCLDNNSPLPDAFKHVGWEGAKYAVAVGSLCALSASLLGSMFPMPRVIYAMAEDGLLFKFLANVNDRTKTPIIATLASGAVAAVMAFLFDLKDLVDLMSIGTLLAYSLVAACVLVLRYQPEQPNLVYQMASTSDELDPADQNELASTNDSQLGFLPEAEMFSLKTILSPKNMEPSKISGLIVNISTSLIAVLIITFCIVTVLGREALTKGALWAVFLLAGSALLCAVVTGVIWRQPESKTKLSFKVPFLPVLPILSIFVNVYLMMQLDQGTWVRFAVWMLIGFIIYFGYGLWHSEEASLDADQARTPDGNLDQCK
Test: hCAT1 competition uptake assay (inhibition of 3H-arginine uptake into LLCPK-TREx-hCAT1 cells)
Type: cell-based
Conditions: 3H-arginine as substrate, LLCPK-TREx-hCAT1 cells induced to express hCAT1, 10 minutes at room temperature
Experimental: A modified competition uptake assay was developed to determine the ability of a test compound(s) to inhibit the uptake of radiolabeled substrates into LLCPK-TREx-hCAT1 cells induced to over-express hCAT1. The results are stated as affinities (IC50). […] The competition experiment was performed as described in Example 7. Non-specific uptake was determined by measuring the uptake into cells not induced to express the transporter (“no tet”). […]
ASSAY_ENDPOINT: IC50 (µM)

| CPD_SMILES | VALUE_UNIT | IC50 |
| --- | --- | --- |
| NCCC[C@H](N)C(=O)O | µM | 73 |

(a) N=C(N)NCCC[C@H](N)C(=O)O
(b) NCCCC[C@H](N)C(=O)O
Request: Which is greater in IC50, the first item a or the second item b ? Kindly state the label of the option you pick.
Result: b
(b: 140 µM, a: 83 µM)

src = patent US7670782B2
